Experiment: Metabolic stability […] assessed as alpha-chymotrypsin-mediated compound degradation after 6 hrs by LC-MS analysis
Type: ADME, cell-free
Details: read-out: Drug degradation
property.measured: metabolised at 6 h (%)
Express your answer in %, writing the number without its unit.

CCC(=O)NCCCC[C@H](NC(=O)[C@H](Cc1c[nH]c2ccccc12)NC(=O)[C@H](Cc1cnc[nH]1)NC(=O)[C@@H]1CCC(=O)N1)C(=O)N[C@@H](Cc1cnc[nH]1)C(=O)N[C@@H](CC(=O)O)C(=O)N[C@@H](Cc1c[nH]c2ccccc12)C(=O)N[C@@H](CCCCNC(=O)CO/N=C(\C)[C@]1(O)Cc2c(O)c3c(c(O)c2[C@@H](O[C@H]2C[C@H](N)[C@H](O)[C@H](C)O2)C1)C(=O)c1c(OC)cccc1C3=O)C(=O)N1CCC[C@H]1C(=O)NCC(N)=O :: 45

Returns the measured metabolised at 6 h for the input compound. Input: `COc1cccc2c1C(=O)c1c(O)c3c(c(O)c1C2=O)C[C@@](O)(/C(C)=N/OCC(=O)NCCCC[C@H](NC(=O)[C@H](Cc1c[nH]c2ccccc12)NC(=O)[C@H](CC(=O)O)NC(=O)[C@H](Cc1cnc[nH]1)NC(=O)[C@H](CCCCNC(=O)C(C)C)NC(=O)[C@H](Cc1c[nH]c2ccccc12)NC(=O)[C@H](Cc1cnc[nH]1)NC(=O)[C@@H]1CCC(=O)N1)C(=O)N1CCC[C@H]1C(=O)NCC(N)=O)C[C@@H]3O[C@H]1C[C@H](N)[C@H](O)[C@H](C)O1`
90

* * *

Catalogue of IC50 readings, one per entry.
System: HT-29
Assay: Cytostatic activity against human HT-29 cells compound incubated for 6 hrs followed by compound wash out measured after 72 hrs by MTT assay
Format: functional, cell-based
Express your answer in µM, writing the number without its unit.

COc1cccc2c1C(=O)c1c(O)c3c(c(O)c1C2=O)C[C@@](O)(/C(C)=N/OCC(=O)NCCCC[C@H](NC(=O)[C@H](Cc1c[nH]c2ccccc12)NC(=O)[C@H](CC(=O)O)NC(=O)[C@H](Cc1cnc[nH]1)NC(=O)[C@H](CCCCN)NC(=O)[C@H](Cc1c[nH]c2ccccc12)NC(=O)[C@H](Cc1cnc[nH]1)NC(=O)[C@@H]1CCC(=O)N1)C(=O)N1CCC[C@H]1C(=O)NCC(N)=O)C[C@@H]3O[C@H]1C[C@H](N)[C@H](O)[C@H](C)O1 :: 8.1

Returns the measured IC50 for the input compound. Input: `CCCCCCCCCCCCCC(=O)NCCCC[C@H](NC(=O)[C@H](Cc1c[nH]c2ccccc12)NC(=O)[C@H](Cc1cnc[nH]1)NC(=O)[C@@H]1CCC(=O)N1)C(=O)N[C@@H](Cc1cnc[nH]1)C(=O)N[C@@H](CC(=O)O)C(=O)N[C@@H](Cc1c[nH]c2ccccc12)C(=O)N[C@@H](CCCCNC(=O)CO/N=C(\C)[C@]1(O)Cc2c(O)c3c(c(O)c2[C@@H](O[C@H]2C[C@H](N)[C@H](O)[C@H](C)O2)C1)C(=O)c1c(OC)cccc1C3=O)C(=O)N1CCC[C@H]1C(=O)NCC(N)=O`
37.4

* * *

System: HT-29
Assay: Cellular uptake in human HT-29 cells after 6 hrs by flow cytometer
Format: ADME, cell-based
Settings: ht-29, 6 h
property.measured: Drug uptake

COc1cccc2c1C(=O)c1c(O)c3c(c(O)c1C2=O)C[C@@](O)(/C(C)=N/OCC(=O)NCCCC[C@H](NC(=O)[C@H](Cc1c[nH]c2ccccc12)NC(=O)[C@H](CC(=O)O)NC(=O)[C@H](Cc1cnc[nH]1)NC(=O)[C@H](CCCCNC(=O)C(C)C)NC(=O)[C@H](Cc1c[nH]c2ccccc12)NC(=O)[C@H](Cc1cnc[nH]1)NC(=O)[C@@H]1CCC(=O)N1)C(=O)N1CCC[C@H]1C(=O)NCC(N)=O)C[C@@H]3O[C@H]1C[C@H](N)[C@H](O)[C@H](C)O1 :: Dose-dependent effect
COc1cccc2c1C(=O)c1c(O)c3c(c(O)c1C2=O)C[C@@](O)(/C(C)=N/OCC(=O)NCCCC[C@H](NC(=O)[C@H](Cc1c[nH]c2ccccc12)NC(=O)[C@H](CC(=O)O)NC(=O)[C@H](Cc1cnc[nH]1)NC(=O)[C@H](CCCCNC(=O)CC(C)C)NC(=O)[C@H](Cc1c[nH]c2ccccc12)NC(=O)[C@H](Cc1cnc[nH]1)NC(=O)[C@@H]1CCC(=O)N1)C(=O)N1CCC[C@H]1C(=O)NCC(N)=O)C[C@@H]3O[C@H]1C[C@H](N)[C@H](O)[C@H](C)O1 :: Dose-dependent effect

* * *

Test: Metabolic stability […] assessed as alpha-chymotrypsin-mediated compound degradation after 6 hrs by LC-MS analysis
Format: ADME, cell-free
Conditions: read-out: Drug degradation
Catalogue of metabolised at 6 h readings, one per entry.
Please answer in the form of a number followed by its unit of measurement.

CCCCCC(=O)NCCCC[C@H](NC(=O)[C@H](Cc1c[nH]c2ccccc12)NC(=O)[C@H](Cc1cnc[nH]1)NC(=O)[C@@H]1CCC(=O)N1)C(=O)N[C@@H](Cc1cnc[nH]1)C(=O)N[C@@H](CC(=O)O)C(=O)N[C@@H](Cc1c[nH]c2ccccc12)C(=O)N[C@@H](CCCCNC(=O)CO/N=C(\C)[C@]1(O)Cc2c(O)c3c(c(O)c2[C@@H](O[C@H]2C[C@H](N)[C@H](O)[C@H](C)O2)C1)C(=O)c1c(OC)cccc1C3=O)C(=O)N1CCC[C@H]1C(=O)NCC(N)=O :: 30%
COc1cccc2c1C(=O)c1c(O)c3c(c(O)c1C2=O)C[C@@](O)(/C(C)=N/OCC(=O)NCCCC[C@H](NC(=O)[C@H](Cc1c[nH]c2ccccc12)NC(=O)[C@H](CC(=O)O)NC(=O)[C@H](Cc1cnc[nH]1)NC(=O)[C@H](CCCCNC(=O)CC(C)C)NC(=O)[C@H](Cc1c[nH]c2ccccc12)NC(=O)[C@H](Cc1cnc[nH]1)NC(=O)[C@@H]1CCC(=O)N1)C(=O)N1CCC[C@H]1C(=O)NCC(N)=O)C[C@@H]3O[C@H]1C[C@H](N)[C@H](O)[C@H](C)O1 :: 34%

Now take the following compound into account.
Returns the measured metabolised at 6 h for the input compound. Input: `C/C=C/C(=O)NCCCC[C@H](NC(=O)[C@H](Cc1c[nH]c2ccccc12)NC(=O)[C@H](Cc1cnc[nH]1)NC(=O)[C@@H]1CCC(=O)N1)C(=O)N[C@@H](Cc1cnc[nH]1)C(=O)N[C@@H](CC(=O)O)C(=O)N[C@@H](Cc1c[nH]c2ccccc12)C(=O)N[C@@H](CCCCNC(=O)CO/N=C(\C)[C@]1(O)Cc2c(O)c3c(c(O)c2[C@@H](O[C@H]2C[C@H](N)[C@H](O)[C@H](C)O2)C1)C(=O)c1c(OC)cccc1C3=O)C(=O)N1CCC[C@H]1C(=O)NCC(N)=O`
50%

* * *

System: HT-29
Test: Cellular uptake in human HT-29 cells after 6 hrs by flow cytometer
Assay type: ADME, cell-based
Conditions: ht-29, 6 h
property.measured: Drug uptake

CCCCCC(=O)NCCCC[C@H](NC(=O)[C@H](Cc1c[nH]c2ccccc12)NC(=O)[C@H](Cc1cnc[nH]1)NC(=O)[C@@H]1CCC(=O)N1)C(=O)N[C@@H](Cc1cnc[nH]1)C(=O)N[C@@H](CC(=O)O)C(=O)N[C@@H](Cc1c[nH]c2ccccc12)C(=O)N[C@@H](CCCCNC(=O)CO/N=C(\C)[C@]1(O)Cc2c(O)c3c(c(O)c2[C@@H](O[C@H]2C[C@H](N)[C@H](O)[C@H](C)O2)C1)C(=O)c1c(OC)cccc1C3=O)C(=O)N1CCC[C@H]1C(=O)NCC(N)=O :: Dose-dependent effect
CCC(=O)NCCCC[C@H](NC(=O)[C@H](Cc1c[nH]c2ccccc12)NC(=O)[C@H](Cc1cnc[nH]1)NC(=O)[C@@H]1CCC(=O)N1)C(=O)N[C@@H](Cc1cnc[nH]1)C(=O)N[C@@H](CC(=O)O)C(=O)N[C@@H](Cc1c[nH]c2ccccc12)C(=O)N[C@@H](CCCCNC(=O)CO/N=C(\C)[C@]1(O)Cc2c(O)c3c(c(O)c2[C@@H](O[C@H]2C[C@H](N)[C@H](O)[C@H](C)O2)C1)C(=O)c1c(OC)cccc1C3=O)C(=O)N1CCC[C@H]1C(=O)NCC(N)=O :: Dose-dependent effect
CCCCCCCCCCCCCC(=O)NCCCC[C@H](NC(=O)[C@H](Cc1c[nH]c2ccccc12)NC(=O)[C@H](Cc1cnc[nH]1)NC(=O)[C@@H]1CCC(=O)N1)C(=O)N[C@@H](Cc1cnc[nH]1)C(=O)N[C@@H](CC(=O)O)C(=O)N[C@@H](Cc1c[nH]c2ccccc12)C(=O)N[C@@H](CCCCNC(=O)CO/N=C(\C)[C@]1(O)Cc2c(O)c3c(c(O)c2[C@@H](O[C@H]2C[C@H](N)[C@H](O)[C@H](C)O2)C1)C(=O)c1c(OC)cccc1C3=O)C(=O)N1CCC[C@H]1C(=O)NCC(N)=O :: Dose-dependent effect
